# Measured On: Transient receptor potential vanilloid 1 (TRPV1) (Mus musculus)
# Sequence (Q704Y3 whole entry): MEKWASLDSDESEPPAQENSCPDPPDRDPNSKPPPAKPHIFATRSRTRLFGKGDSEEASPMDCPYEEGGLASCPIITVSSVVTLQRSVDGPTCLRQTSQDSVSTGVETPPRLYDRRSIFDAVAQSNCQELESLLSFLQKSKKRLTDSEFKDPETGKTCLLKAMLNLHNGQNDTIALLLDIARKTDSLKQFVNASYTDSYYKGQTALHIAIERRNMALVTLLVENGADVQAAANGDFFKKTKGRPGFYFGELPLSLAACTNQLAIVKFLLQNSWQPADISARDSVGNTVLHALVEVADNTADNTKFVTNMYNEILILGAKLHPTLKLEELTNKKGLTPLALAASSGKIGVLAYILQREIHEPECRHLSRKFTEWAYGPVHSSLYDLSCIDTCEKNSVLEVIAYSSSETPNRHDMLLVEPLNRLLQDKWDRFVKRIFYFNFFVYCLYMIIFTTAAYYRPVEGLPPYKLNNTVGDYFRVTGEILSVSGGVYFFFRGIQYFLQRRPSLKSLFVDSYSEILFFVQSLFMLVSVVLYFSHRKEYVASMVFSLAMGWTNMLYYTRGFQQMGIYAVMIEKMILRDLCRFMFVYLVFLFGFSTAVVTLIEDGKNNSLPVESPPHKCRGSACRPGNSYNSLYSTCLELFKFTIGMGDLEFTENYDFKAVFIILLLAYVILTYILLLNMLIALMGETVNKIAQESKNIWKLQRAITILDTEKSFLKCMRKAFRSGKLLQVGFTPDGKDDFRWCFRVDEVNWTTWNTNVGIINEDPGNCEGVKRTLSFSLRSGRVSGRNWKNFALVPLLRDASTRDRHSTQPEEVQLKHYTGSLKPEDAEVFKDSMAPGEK
# Assay Overview: whole-cell patch clamp of native TRPV1 currents in cultured mouse DRG neurons

{"Smiles Record": "COc1cc(/C=C/C(=O)CC(=O)/C=C/c2ccc(O)c(OC)c2)ccc1O", "IC50 [nM]": 523}
